Target: Progesterone receptor (Homo sapiens)
Experiment: qHTS assay to identify small molecule antagonists of the progesterone receptor (PR) signaling pathway (AID 1346795)
Details: PR-UAS-bla HEK293T, beta-lactamase FRET ratio, 16 h; series mostly up to 92.4 µM
Records with an inconclusive call do not appear. Activity calls are given as the source filed them. The call rests on the fitted dose curve; in most records, active means well fitted inhibition curve with a large enough effect in the signal ratio in the repeat runs (not every such curve was filed as active); inconclusive means weak or mixed curves; inactive means flat fitted curve, though single readings scatter; the % refers to the signal ratio.
# valid calls are active, inactive; nothing else

- compound: "C#CC(C)(CC)OC(=O)c1ccccc1C(=O)O (stereo not given)"
  experimental_target: "Progesterone receptor (Homo sapiens)"
  cat: "inactive"

Moving on to the next compound.
Request: Recorded test outcome, item CCN(CC)C(=S)SSC(=S)N(CC)CC
Response: active

====

Molecular target: Peroxisome proliferator-activated receptor delta (Homo sapiens) (UniProt Q03181)
Sequence (Q03181 whole entry, looked up): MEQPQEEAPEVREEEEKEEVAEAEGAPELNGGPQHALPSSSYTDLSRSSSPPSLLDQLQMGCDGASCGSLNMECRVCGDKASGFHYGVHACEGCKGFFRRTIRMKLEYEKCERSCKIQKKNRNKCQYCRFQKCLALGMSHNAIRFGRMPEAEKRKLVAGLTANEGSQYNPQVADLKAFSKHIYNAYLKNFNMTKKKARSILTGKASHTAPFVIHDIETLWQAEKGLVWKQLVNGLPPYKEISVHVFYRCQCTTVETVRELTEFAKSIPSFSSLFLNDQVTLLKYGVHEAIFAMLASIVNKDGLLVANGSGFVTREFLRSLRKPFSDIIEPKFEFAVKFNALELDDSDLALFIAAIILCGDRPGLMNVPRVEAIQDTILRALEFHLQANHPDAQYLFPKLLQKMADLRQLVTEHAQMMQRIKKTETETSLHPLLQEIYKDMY
Test: qHTS assay to identify small molecule antagonists of the peroxisome proliferator-activated receptor delta (PPARd) signaling pathway (AID 743215);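 further: cells stimulated with agonist L165041 at 300 nM final during compound exposure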
Details: HEK293H PPARd-UAS-bla, beta-lactamase FRET ratio, antagonist, 17 h; series mostly up to 62 µM
Records with an inconclusive call do not appear. Active and inactive are the calls of the source. Calls come from the whole dose curve; as a rule, active = well fitted inhibition curve with a large enough effect in the signal ratio in the repeat runs (not every such curve was filed as active); inconclusive = weak or mixed curves, or effect the other way; inactive = no such curve, though single readings can be large or run the other way; the % refers to the signal ratio.
# valid calls are 1.0 for active, 0.0 for inactive; nothing else

Request: Recorded test outcome, item Cc1cccc([N+](=O)[O-])c1C(=O)O
Response: 0.0

Request: Recorded test outcome, item CCN(CC)C(=S)SSC(=S)N(CC)CC
Response: 1.0

Request: Recorded test outcome, item COc1ccc(COC(C)=O)cc1
Response: 0.0

Request: Recorded test outcome, item CCC(=O)/C=C/C1C(C)=CCCC1(C)C (configuration not stated)
Response: 0.0

Request: Recorded test outcome, item COC(=O)c1cccc(C(=O)OC)c1
Response: 0.0

Request: Recorded test outcome, item CC(C)(C)c1cc(C(C)(C)C)c(O)c(C(C)(C)C)c1
Response: 0.0

Request: Recorded test outcome, item C=CS(=O)(=O)O
Response: 0.0

====

Assay: qHTS assay for small molecule activators of the heat shock response signaling pathway (AID 743210);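 further: HeLa cells with beta-lactamase reporter driven by heat shock elements; on the % scale 0 is the no-effect control and ±100 the full control effect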
Conditions: HeLa HSE-bla reporter, beta-lactamase ratio, 5 h; series mostly up to 62.6 µM
Inconclusive results are not listed. Activity calls are given as the source filed them. The call rests on the fitted dose curve; in most records, active means well fitted activation curve with a large enough effect in the signal ratio in the repeat runs, with a control signal flat (not every such curve was filed as active); inconclusive means weak or mixed curves; inactive means flat fitted curve, though single readings scatter; the % refers to the signal ratio. Starred links: 1 amine or outer side, 2 acyl side, 3 side chain; linkers in the order of their positions; H or OH if unused. Positions of bridges follow the written chain, without caps; N, C: chain ends. Non-standard residues stand in square brackets, D forms with d. Residues, ends and D or L forms follow the SMILES beside them. Chains are numbered I, II in the order given. Actinocin(9to1) = Cc1c2oc3c(C)ccc(C(=O)[*:1])c3nc-2c(C(=O)[*:2])c(N)c1=O; NMeV = CN[C@H](C(=O)O)C(C)C; Sar = CNCC(=O)O
# valid calls are active, inactive; nothing else

As a guide, the following entries are already answered.
- compound: "C[N+]1([O-])CCOCC1"
  cat: "inactive"
- compound: "Cc1c2oc3c(C)ccc(C(=O)N[C@@H]4C(=O)N[C@H](C(C)C)C(=O)N5CCC[C@H]5C(=O)N(C)CC(=O)N(C)[C@@H](C(C)C)C(=O)O[C@@H]4C)c3nc-2c(C(=O)N[C@@H]2C(=O)N[C@H](C(C)C)C(=O)N3CCC[C@H]3C(=O)N(C)CC(=O)N(C)[C@@H](C(C)C)C(=O)O[C@@H]2C)c(N)c1=O (I: T[dV]P[Sar][NMeV] / II: T[dV]P[Sar][NMeV]; ester I:1-I:C, II:1-II:C; linker I:N-II:N via Actinocin(9to1))"
  cat: "inactive"
- compound: "CCC(CO)(CO)COCC(CC)(CO)CO"
  cat: "inactive"

Moving on to the next compound.
Request: Recorded test outcome, item Nc1nc(=S)c2[nH]cnc2[nH]1
Response: inactive

====

Assay: qHTS assay to identify small molecule agonists of H2AX (AID 1224845)
Conditions: CHO-K1 phospho-H2AX Ser139 HTRF, 3 h; series mostly up to 154 µM
Inconclusive results are not listed. The source made the active and inactive calls. Calls follow the shape of the dose curve; as a rule, active = well fitted activation curve with a large enough effect in the signal ratio in the repeat runs (not every such curve was filed as active); inconclusive = weak or mixed curves; inactive = flat fitted curve, though single readings scatter; the % refers to the signal ratio.
# valid calls are active, inactive; nothing else

As a guide, the following entries are already answered.
- compound: "CC1=CC(=O)c2ccccc2C1=O"
  cat: "active"
- compound: "O=C1CC2(CCCC2)CC(=O)N1CCCCN1CCN(c2ncccn2)CC1"
  cat: "inactive"

Request: Recorded test outcome, item CCCCOCCOC(=O)c1ccccc1C(=O)OCCOCCCC
Response: inactive

Request: Recorded test outcome, item Cc1cccc(O)c1C
Response: inactive

Request: Recorded test outcome, item CO[Si](OC)(OC)c1ccccc1
Response: inactive

====

Assay: qHTS assay for identifying genotoxic compounds that show differential cytotoxicity against isogenic chicken DT40 cell lines with known DNA damage response pathways - wild type cell line (AID 743012); further: nearly all actives have a fitted effect of over 60% in size
Conditions: DT40 wild type chicken cells viability, CellTiter-Glo, 40 h; series mostly up to 68.4 µM
Results filed as inconclusive are left out. Active and inactive are the calls of the source. The call rests on the fitted dose curve; in most records, active means well fitted cell-killing curve with a large enough effect in the repeat runs; inconclusive means weak or mixed curves, or effect the other way; inactive means no such curve, though single readings can be large or run the other way.
# valid calls are true (1) = active, false (0) = inactive; nothing else

As a guide, the following entries are already answered.
- molecule: "CC(=O)N[C@@H](CS)C(=O)O"
  cat: "false (0)"
- molecule: "CC1COC(=O)O1 (centres undefined)"
  cat: "false (0)"
- molecule: "O=Cc1ccc(Cl)cc1"
  cat: "false (0)"
- molecule: "O=C(OCc1ccccc1)c1ccc(O)cc1"
  cat: "false (0)"

Request: Recorded test outcome, item CCC[C@H](N[C@@H](C)C(=O)N1[C@H](C(=O)O)C[C@@H]2CCCC[C@@H]21)C(=O)OCC
Response: false (0)

Request: Recorded test outcome, item CC(=O)C1=C(C)[C@@H]2C[C@@]3(C1)[C@H](C)CC[C@H]3C2(C)C
Response: false (0)

Request: Recorded test outcome, item BrC1CCC(Br)C(Br)CCC(Br)C(Br)CCC1Br (centres undefined)
Response: true (1)

====

Experiment: A CellTox Green Cytotoxicity Assay to monitor cytotoxicity in HEK293 cells - 16 hour (AID 1224888); further: on the % scale 0 is the no-effect control and ±100 the full control effect; nearly all actives have a fitted effect of over 35% in size
Conditions: CellTox Green fluorescence; series mostly up to 76.8 µM
Results filed as inconclusive are left out. The source made the active and inactive calls. Calls follow the shape of the dose curve; as a rule, active = well fitted activation curve with a large enough effect in the repeat runs; inconclusive = weak or mixed curves; inactive = flat fitted curve, though single readings scatter.
# valid calls are active, inactive; nothing else

- compound: "Cc1ccnc2c1NC(=O)c1cccnc1N2C1CC1"
  cat: "inactive"
- compound: "O=C(O)c1cc(Cl)cc(Cl)c1"
  cat: "inactive"
- compound: "CC(=O)OCC1=C(C(=O)O)N2C(=O)[C@@H](NC(=O)Cc3cccs3)[C@H]2SC1"
  cat: "inactive"

Request: Recorded test outcome, item CC(=O)N[C@@H](CS)C(=O)O
Response: inactive

Request: Recorded test outcome, item C[N+]1([O-])CCOCC1
Response: inactive

Request: Recorded test outcome, item CC1=C(C=O)C(C)(C)CC=C1
Response: inactive

Request: Recorded test outcome, item CC(=O)CC(C)=O
Response: inactive

====

Assay: Caspase-3/7 induction in HepG2 cells by small molecules, qHTS assay (AID 1346978); further: on the % scale 0 is the no-effect control and ±100 the full control effect; nearly all actives have a fitted effect of over 15% in size
Settings: HepG2 caspase-3/7 activation, Caspase-Glo luminescence, 17 h; series mostly up to 92.4 µM
Inconclusive results are not listed. Activity calls are given as the source filed them. Calls come from the whole dose curve; as a rule, active = well fitted activation curve with a large enough effect in the repeat runs; inconclusive = weak or mixed curves; inactive = flat fitted curve, though single readings scatter.
# valid calls are active, inactive; nothing else

As a guide, the following entries are already answered.
- compound: "CC1COc2c(N3CCN(C)CC3)c(F)cc3c(=O)c(C(=O)O)cn1c23 (stereo not drawn)"
  cat: "inactive"
- compound: "CC(C)(C)NC(=O)[C@@H]1CN(Cc2cccnc2)CCN1C[C@@H](O)C[C@@H](Cc1ccccc1)C(=O)N[C@H]1c2ccccc2C[C@H]1O"
  cat: "inactive"
- compound: "CC(=O)C1=C(C)[C@@H]2C[C@@]3(C1)[C@H](C)CC[C@H]3C2(C)C"
  cat: "inactive"
- compound: "CCc1cc(C(C)(C)C)c(O)c(C(C)(C)C)c1"
  cat: "inactive"
- compound: "C=C(C)C1CC=C(C)C(OC(C)=O)C1 (stereo not drawn)"
  cat: "inactive"
- compound: "NC(N)=Nc1nc(CSCC/C(N)=N/S(N)(=O)=O)cs1"
  cat: "inactive"

Request: Recorded test outcome, item C#CC(C)(CC)OC(=O)c1ccccc1C(=O)O (stereo not drawn)
Response: inactive

Request: Recorded test outcome, item CCC(C)(C)C(=O)O[C@H]1C[C@@H](C)C=C2C=C[C@H](C)[C@H](CC[C@@H]3C[C@@H](O)CC(=O)O3)[C@H]21
Response: inactive

Request: Recorded test outcome, item CC(=O)OCCOCCOCCOC(C)=O
Response: inactive

====

Assay: qHTS assay for small molecule agonists of the p53 signaling pathway - cell viability (AID 651633);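 further: p53RE-bla HCT reporter cells with a stable beta-lactamase p53 reporter; on the % scale 0 is the no-effect control and ±100 the full control effect; nearly all actives have a fitted effect of over 30% in size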
Conditions: p53RE-bla HCT-116 viability, ATP luminescence, 16 h; series mostly up to 83.3 µM
Results filed as inconclusive are left out. Calls of active or inactive are those of the source. Calls come from the whole dose curve.
# valid calls are 1.0 (active), 0.0 (inactive); nothing else

As a guide, the following entries are already answered.
- molecule: "OCC(CO)N[C@H]1C[C@](O)(CO)[C@@H](O)[C@H](O)[C@H]1O"
  cat: 0.0
- molecule: "CC1=C(C=O)C(C)(C)CC=C1"
  cat: 0.0

Request: Recorded test outcome, item Cc1cccc([N+](=O)[O-])c1C(=O)O
Response: 0.0

Request: Recorded test outcome, item Cc1cccc(O)c1C
Response: 0.0

Request: Recorded test outcome, item CO[Si](OC)(OC)c1ccccc1
Response: 0.0

Request: Recorded test outcome, item Cc1occc(=O)c1OC(=O)C(C)C
Response: 0.0

Request: Recorded test outcome, item CC(C)(O)CCC(C)(C)O
Response: 0.0

Request: Recorded test outcome, item CC(=O)O[C@]1(C(C)=O)CC[C@H]2[C@@H]3C[C@H](C)C4=CC(=O)CC[C@]4(C)[C@H]3CC[C@@]21C
Response: 0.0

Request: Recorded test outcome, item CC(C)CCOC(=O)c1ccc(N(C)C)cc1
Response: 0.0

Request: Recorded test outcome, item O=C1NCC2(CCN(CCc3ccccc3)CC2)O1
Response: 0.0
